Reported cyt c values are given for each entry in this list.
tested on: cytochrome c; assay type: cell-based, mouse; details: composite Z-score vs mock-treated (DMSO) wells; concentration of each compound in μM
Where a SMILES comes first, the peptide text is derived from it.
MEASURED_METRIC: cyt c

{"columns": ["COMPOUND", "NUMERIC_RESULT"],
 "data": [
  ["CC[C@H](C)[C@H](N)C(=O)N1CCC[C@H]1C(=O)N[C@H](C(=O)O)[C@@H](C)CC [diprotin A]", "−0.975"],
  ["CC(O)Cn1cnc2c1c(=O)n(C)c(=O)n2C (centres unmarked) [proxyphylline]", "−0.574"],
  ["C[C@@H]1O[C@@H](OC[C@H]2O[C@@H](Oc3c(-c4ccc(O)c(O)c4)oc4cc(O)cc(O)c4c3=O)[C@H](O)[C@@H](O)[C@@H]2O)[C@H](O)[C@H](O)[C@H]1O [rutoside]", "−0.012"],
  ["COCC(=O)Nc1c(I)c(C(=O)NCC(O)CO)c(I)c(C(=O)N(C)CC(O)CO)c1I (centres unmarked) [iopromide]", 0.263],
  ["C[C@@H]1O[C@@H](OC[C@H]2O[C@@H](Oc3c(-c4ccc(OCCO)c(OCCO)c4)oc4cc(OCCO)cc(O)c4c3=O)[C@H](O)[C@@H](O)[C@@H]2O)[C@H](O)[C@H](O)[C@H]1O [troxerutin]", "−0.673"],
  ["CCN1C[C@]2(COC)[C@H](O)C[C@H](OC)[C@@]34[C@@H]5C[C@@]6(O)[C@H](OC(=O)c7ccccc7)[C@@H]5[C@@](OC(C)=O)([C@@H]([C@H](OC)[C@H]23)[C@@H]14)[C@@H](O)[C@@H]6OC [aconitine]", 1.609],
  ["CC(C)=CCC[C@]1(C)C=Cc2c(O)c3c(c(CC=C(C)C)c2O1)O[C@]12C(=C[C@@H]4C[C@H]1C(C)(C)O[C@@]2(C/C=C(/C)C(=O)O)C4=O)C3=O [gambogic acid]", "−5.596"],
  ["NCCCC[C@H](N)C(=O)N[C@@H](Cc1ccccc1)C(=O)N[C@@H](Cc1ccc(O)cc1)C(=O)O [lysylphenylalanyltyrosine] (H-Lys-Phe-Tyr-OH)", 0.240],
  ["c1ccc2c3c([nH]c2c1)[C@H]1[C@H]2CC[C@H]([C@@H]4CCCN[C@@H]42)N1CC3 [nitrarine]", 0.040],
  ["CC(C)[C@H](N)C(=O)N[C@@H](Cc1c[nH]c2ccccc12)C(=O)O [valyltryptophan] (H-Val-Trp-OH)", "−0.626"],
  ["COc1cc2c(cc1OC)-c1cc3ccc(OC)c(OC)c3c[n+]1CC2 [Palmatine, reference compound]", "−0.084"],
  ["C[N+](C)(C)CCOP(=O)(O)OP(=O)([O-])OC[C@H]1O[C@@H](n2ccc(N)nc2=O)[C@H](O)[C@@H]1O [citicoline]", 0.322],
  ["NCC(CC(=O)O)c1ccc(Cl)s1 (centres unmarked)", 0.593],
  ["CC1(C)O[C@@H]2[C@@H](CO[C@@]3(COS(N)(=O)=O)OC(C)(C)O[C@@H]23)O1 [topiramate]", "−0.093"]
]}

###

test system: reactive oxygen species; assay type: cell-based, mouse; settings: normalized composite Z-score vs mock-treated (DMSO) wells; Conc 20 μM
Reported ROS values are given for each entry in this list.
MEASURED_METRIC: ROS

{"columns": ["COMPOUND", "NUMERIC_RESULT"],
 "data": [
  ["COc1ccc(-c2cc(=O)c3c(O)cc(O)c(-c4cc(-c5cc(=O)c6c(O)cc(O)cc6o5)ccc4OC)c3o2)cc1", 1.106],
  ["COc1c(-c2coc3cc4c(cc3c2=O)CC(O)C(C)(C)O4)ccc2c1C=CC(C)(C)O2 (stereo not drawn) [mundulone, reference compound]", "−0.141"],
  ["C[C@]12CC[C@H]3[C@@H](CC[C@]4(O)C[C@@H](O)CC[C@]34C(=O)O)[C@@]1(O)CC[C@@H]2C1=CC(=O)OC1", "−0.059"]
]}
